Reported protein stability index by item:
B1: CDC25B (parent)
chain: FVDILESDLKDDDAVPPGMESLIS

variants of: B1; experiment: protein stability index of a GFP-peptide fusion (GPS, HEK-293T) (PSI 1-6); higher = more stable; conditions: c terminus: a fixed tail appended;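 note: lentivirally expressed fusions sorted by FACS into six bins by GFP to DsRed ratio, PSI derived from sequencing read proportions per bin multiplied by bin number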
Keep it simple and answer with nothing but the number.

[
  {
    "recordSequence": "FVDIWESDLKDDDAVPPGMESLIS [L5W]",
    "protein stability index": 1.85
  },
  {
    "recordSequence": "FVDILESDLKDDDAVPPGMESLII [S24I]",
    "protein stability index": 2.69
  },
  {
    "recordSequence": "FVDILESDLKDDDAVPPGMEELIS [S21E]",
    "protein stability index": 3.05
  },
  {
    "recordSequence": "FVDILESDLKHDDAVPPGMESLIS [D11H]",
    "protein stability index": 2.37
  },
  {
    "recordSequence": "FVDILESDLKDDDAVPPGMESLPS [I23P]",
    "protein stability index": 2.96
  }
]

Query block: Which measured protein stability index value corresponds to FVDILESDLKDDDAVPPGMESLIH [S24H] ?
Result block: 2.94

Query block: Another variant: FVDILESDLKDDDAVPRGMESLIS [P17R]
Result block: 2.19

Query block: What do you get for FVDILLSDLKDDDAVPPGMESLIS [E6L] ?
Result block: 2.45

Query block: Repeat for the following variant: FVDILESDLKDDDSVPPGMESLIS [A14S]
Result block: 3.24

Query block: // next record FVDILFSDLKDDDAVPPGMESLIS [E6F]
Result block: 2.68

Query block: Lookup FVDILESDLKDDGAVPPGMESLIS [D13G]
Result block: 2.61

Query block: Now consider FVDILEADLKDDDAVPPGMESLIS [S7A] and answer again.
Result block: 2.79
